# experiment_notes: chemical genetic growth profiling, strain panel (AID 1159580);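 note: tested at 20 µM; growth read once vehicle control cultures reached saturation at 30 °C; 1 = growth at the plate median or of vehicle wells; lower values mean less growth of the strain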
# setup_conditions: S. cerevisiae deletion strains, growth OD, locus YLR102C, strain apc9
Out of some 5,500 compounds screened, about 2,000 (36%) were called active. Not shown: some 18% with an inconclusive outcome. Cut-off read from the data, not from the text of the source: active = normalized growth mostly below about 0.91 (no sharp cut-off); inconclusive = no clear call, values can overlap the other calls; inactive = mostly above about 0.92. The list shows a part of the results.
Answer with one of the outcomes yes = active, no = inactive

Below are worked cases with known answers.
INSERT INTO assay_data (molecule, qualitative_label) VALUES
  ('CN1CCCN=C1COC(=O)C(O)(c1ccccc1)C1CCCCC1 (stereo not drawn)', 'no'),
  ('CC1=C(/C=C/C(C)=C/C=C/C(C)=C/C=C/C=C(C)/C=C/C=C(C)/C=C/C2=C(C)C(=O)C(O)CC2(C)C)C(C)(C)CC(O)C1=O (stereo not drawn)', 'no'),
  ('OCCN1C[C@@H](O)[C@@H](O)C(O)C1CO (stereo partly drawn)', 'no'),
  ('CC1=C(/C=C/C(C)=C/C=C/C(C)=C/C=C/C=C(C)/C=C/C=C(C)/C=C/C23OC2(C)CC(O)CC3(C)C)C(C)(C)CC(O)C1 (stereo not drawn)', 'no'),
  ('C=Cc1c2[nH]c(c1C)C=c1[nH]c(c(C)c1C=C)=CC1N=C(C=c3[nH]c(c(C)c3CCC(=O)O)=C2)C(CCC(=O)O)=C1C (stereo not drawn)', 'no');

Turning now to a further record.
Request: Identify the outcome logged in this assay for the molecule shown: CNCCc1ccccn1
Response: no

---

# experiment_notes: chemical genetic growth profiling, strain panel (AID 1159580)
# setup_conditions: S. cerevisiae deletion strains, growth OD, locus YLR371W, strain rom2, hits give low values
In all, about 5,500 compounds went through this assay and about 2,000 (36%) were called active. Roughly 18% stayed inconclusive and do not appear here. The list shows a part of the results.
measurement_label: normalized growth
Numbers only.

Example compounds with recorded normalized growth:
INSERT INTO measurements (compound, value_observed) VALUES
  ('C[N+](C)(C)CCOC(N)=O', 0.97),
  ('CC(=O)NC1SCCC1=O (stereo not given)', 1.01),
  ('CC(=O)OCC[N+](C)(C)C', 1.08),
  ('C=C1C([C@]2(C)C(CC(=O)OC)[C@@](C)(COC(C)=O)OC(=O)C[C@@H]2OC(C)=O)[C@@H](OC=O)[C@H](OC(=O)C(O)C(C)CC)[C@@]2(C)[C@H](c3ccoc3)CC(=O)C12O (stereo not given in full)', 1.01),
  ('C=C(C)C1CNC(C(=O)O)C1CC(=O)O (stereo not given)', 0.995),
  ('CC(C)OC(=O)C(C)(C)Oc1ccc(C(=O)c2ccc(Cl)cc2)cc1', 0.986),
  ('CCOC(=O)C(C)(C)Oc1ccc(Cl)cc1', 0.971),
  ('Cc1cccc(C)c1OCC(C)N (stereo not given)', 0.988),
  ('CC[C@H]1OC(=O)[C@H](C)[C@@H](O[C@H]2C[C@@](C)(OC)[C@@H](O)[C@H](C)O2)[C@H](C)[C@@H](O[C@@H]2O[C@H](C)C[C@H](N(C)C)[C@H]2O)[C@](C)(O)C[C@@H](C)CN(C)[C@H](C)[C@@H](O)[C@]1(C)O', 0.964);

Now look at this one.
Request: // normalized growth lookup, key: CC(C[N+](C)(C)C)OC(N)=O (stereo not given)
Response: 0.976

---

# experiment_notes: chemical genetic growth profiling, strain panel (AID 1159580)
# setup_conditions: S. cerevisiae deletion strains, growth OD, locus YNL322C, strain KRE1 (second series), hits give low values
In all, about 5,500 compounds went through this assay and about 2,000 (36%) were called active. Roughly 18% stayed inconclusive and do not appear here. Some of the results follow.
measurement_label: normalized growth
One number for each entry.

INSERT INTO assay_data (compound, value_observed) VALUES
  ('O=C(O)c1c2ccccc2cc2ccccc12', 0.998),
  ('CC(=O)O[C@@H]1C[C@@]2(C)C(CC[C@@H]2C(C)=O)C2CCC3=CC(=O)CC[C@]3(C)C21 (some centres not stated)', 1.01),
  ('CC(C[N+](C)(C)C)OC(N)=O (configuration not stated)', 1.01),
  ('C[C@]12CCC(=O)C=C1CCC1C2CC[C@@]2(C)C1CC[C@@H]2O (some centres not stated)', 0.993),
  ('CCC(=O)O[C@H]1CCC2C3CCC4=CC(=O)CC[C@]4(C)C3CC[C@@]21C (some centres not stated)', 0.952),
  ('CC(=O)NC1SCCC1=O (configuration not stated)', 0.989);

For each of the compounds below, state normalized growth.
1. NCC1CCC(C(=O)O)CC1 (configuration not stated)
2. COc1cc(O)c(C(=O)/C=C/c2ccc(O)c(OC)c2)c(OC)c1

Response:
1: 0.992; 2: 0.985

---

# experiment_notes: chemical genetic growth profiling, strain panel (AID 1159580);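 note: tested at 20 µM; growth read once vehicle control cultures reached saturation at 30 °C; 1 = growth at the plate median or of vehicle wells; lower values mean less growth of the strain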
# setup_conditions: S. cerevisiae deletion strains, growth OD, locus YDL101C, strain DUN1, hits give low values
About 2,000 (36%) of roughly 5,500 compounds were called active. Not shown: some 18% with an inconclusive outcome. The list shows a part of the results.
measurement_label: normalized growth
Numbers only.

For every item in the list below, what is its measured normalized growth?
1. CSC1=NNC(c2nn(C)cc2Cl)S1 (configuration not stated)
2. CCC(=O)O[C@H]1[C@H](O[C@@H]2[C@@H](C)[C@H](O[C@H]3C[C@@](C)(OC)[C@@H](O)[C@H](C)O3)[C@@H](C)C(=O)O[C@H](CC)[C@@](C)(O)[C@H](O)[C@@H](C)C(=O)[C@H](C)C[C@@]2(C)O)O[C@H](C)C[C@@H]1N(C)C
3. O=C(N/C=C/c1ccsc1)Nc1cc(C(F)(F)F)cc(C(F)(F)F)c1
4. CC[C@H]1OC(=O)[C@H](C)[C@@H](O[C@H]2C[C@@](C)(OC)[C@@H](O)[C@H](C)O2)[C@H](C)[C@@H](O[C@@H]2O[C@H](C)C[C@H](N(C)C)[C@H]2O)[C@](C)(O)C[C@@H](C)CN(C)[C@H](C)[C@@H](O)[C@]1(C)O

Response:
[0.206, 0.959, 0.995, 0.987]

Report normalized growth for every entry below.
1. CN1CCCN=C1COC(=O)C(O)(c1ccccc1)C1CCCCC1 (configuration not stated)
2. CCOC(=O)CCC(=O)O[C@H]1[C@H](O[C@@H]2[C@@H](C)[C@H](O[C@H]3C[C@@](C)(OC)[C@@H](O)[C@H](C)O3)[C@@H](C)C(=O)O[C@H](CC)[C@@](C)(O)[C@H](O)[C@@H](C)C(=O)[C@H](C)C[C@@]2(C)O)O[C@H](C)C[C@@H]1N(C)C
3. CS(=O)(=O)c1ccc(C2=C(c3ccccc3)C(=O)OC2)cc1

Response:
1: 1.01; 2: 0.977; 3: 0.99

---

Record form. Attribute: normalized growth. Fill in for each entry.
# experiment_notes: chemical genetic growth profiling, strain panel (AID 1159580);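 note: tested at 20 µM; growth read once vehicle control cultures reached saturation at 30 °C; 1 = growth at the plate median or of vehicle wells; lower values mean less growth of the strain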
# setup_conditions: S. cerevisiae strains, growth OD, strain wild type, hits give low values
The whole screen tested about 5,500 compounds, of which about 2,000 (36%) were called active. Inconclusive results (about 18%) are left out. This is one part of the list.
Give bare numbers.

INSERT INTO results (compound, value_observed) VALUES
  ('CO[C@H]1[C@H](O)[C@H](O[C@H]2CC[C@]3(C)C4CC[C@]5(C)C(C6=CC(=O)OC6)CC[C@]5(O)C4CC[C@@H]3C2)O[C@@H](C)[C@@H]1O (some centres undefined)', 1.02),
  ('CCC(C)C(=O)O[C@H]1[C@H](O)C2C(CN3CC(C)CCC3[C@@]2(C)O)C2C[C@]34O[C@]5(O)C(OC(=O)C(C)(O)C(C)O)CC[C@@]3(C)C5C(OC(C)=O)[C@@H](OC(C)=O)C4[C@@]21O (some centres undefined)', 1.01),
  ('C[C@@H]1[C@H]2[C@H](O[C@@H]3O[C@H](CO)[C@@H](O)[C@H](O)[C@H]3O)OC=C(C(=O)O)[C@H]2C[C@@H]1O', 1);

Continue with the next compound.
Request: I have this compound here, CCOC(=O)C1(O)Oc2cc(OC)cc(OC)c2C(=O)C1c1ccccc1 (centres undefined) , and I need its recorded normalized growth.
Response: 0.99

---

# experiment_notes: chemical genetic growth profiling, strain panel (AID 1159580);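 note: tested at 20 µM; growth read once vehicle control cultures reached saturation at 30 °C; 1 = growth at the plate median or of vehicle wells; lower values mean less growth of the strain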
# setup_conditions: S. cerevisiae deletion strains, growth OD, locus YDR101C, strain arx1, hits give low values
The campaign covered roughly 5,500 compounds. About 2,000 (36%) were called active. Inconclusive results (about 18%) are left out. Some of the results follow.
Could you please report measured normalized growth for the items listed next?

As a guide, the following entries are already answered.
INSERT INTO assay_data (molecule, measurement_label, value_observed) VALUES
  ('C[C@@H]1[C@H]2[C@H](O[C@@H]3O[C@H](CO)[C@@H](O)[C@H](O)[C@H]3O)OC=C(C(=O)O)[C@H]2C[C@@H]1O', 'normalized growth', '1.01 (inactive)'),
  ('C[N+](C)(C)CCCCCC[N+](C)(C)C', 'normalized growth', '1.03 (inactive)'),
  ('CN1CCC(=C2c3ccccc3Sc3ccccc32)CC1', 'normalized growth', '1.01 (inactive)'),
  ('CC(=O)OCC[N+](C)(C)C', 'normalized growth', '1.07 (inactive)'),
  ('OCCN1C[C@@H](O)[C@@H](O)C(O)C1CO (some centres undefined)', 'normalized growth', '1.01 (inactive)'),
  ('CC(=O)N[C@@H](CC(C)C)C(=O)O', 'normalized growth', '0.989 (inactive)');

Please give normalized growth for each item listed below.
1. CC(C[N+](C)(C)C)OC(N)=O (centres undefined)
2. COP(=O)(OC)OC=C(Cl)Cl
3. COc1ccc2c(C)cc(=O)oc2c1
4. C[C@H]1CC2C([C@@H](O)C[C@@]3(C)C2CC[C@]3(O)C(=O)CO)[C@@]2(C)C=CC(=O)C=C12 (some centres undefined)
5. CC(C(=O)O)c1cccc(Oc2ccccc2)c1 (centres undefined)
6. CCN(CC)CCCC(C)Nc1ccnc2cc(Cl)ccc12 (centres undefined)

Response:
1: 0.991 (inactive); 2: 0.986 (inactive); 3: 1.01 (inactive); 4: 1.02 (inactive); 5: 0.984 (inactive); 6: 0.993 (inactive)

Required: normalized growth, one value per molecule below.
1. NCC1CCC(C(=O)O)CC1 (centres undefined)
2. C[C@]12CC(=O)C3C(CC[C@@H]4C[C@H](O)CC[C@]34C)C1CC[C@]2(O)C(=O)CO (some centres undefined)

Response:
1 (inactive)
0.978 (inactive)

Go through the items and report each one's normalized growth.
1. CC(N)C(=O)OC(C)(C)Cc1ccc(Cl)cc1 (centres undefined)
2. C=C(C)C1CNC(C(=O)O)C1CC(=O)O (centres undefined)
3. O=C(CC[N+](=O)[O-])OC[C@H]1O[C@@H](O)[C@H](OC(=O)CC[N+](=O)[O-])[C@@H](OC(=O)CC[N+](=O)[O-])[C@@H]1OC(=O)CC[N+](=O)[O-]
4. COc1ccc(OC)c(C(O)C(C)N)c1 (centres undefined)
5. CCN(CC)CCCC(C)Nc1c2ccc(Cl)cc2nc2ccc(OC)cc12 (centres undefined)

Response:
1. 0.983 (inactive)
2. 1.01 (inactive)
3. 1.01 (inactive)
4. 0.981 (inactive)
5. 0.413 (active)

State recorded normalized growth for all listed molecules.
1. CC(C)OC(=O)C(C)(C)Oc1ccc(C(=O)c2ccc(Cl)cc2)cc1
2. CCCCCCCCCCCCCCCC[N+](C)(C)C
3. NCCSSCCN
4. CC(=O)NC1SCCC1=O (centres undefined)
5. CCC(C)C(=O)O[C@H]1[C@H](O)C2C(CN3CC(C)CCC3[C@@]2(C)O)C2C[C@]34O[C@]5(O)C(OC(=O)C(C)(O)C(C)O)CC[C@@]3(C)C5C(OC(C)=O)[C@@H](OC(C)=O)C4[C@@]21O (some centres undefined)

Response:
1: 0.987 (inactive); 2: 0.0591 (active); 3: 1.01 (inactive); 4: 0.982 (inactive); 5: 0.986 (inactive)

Give normalized growth for all molecules that follow.
1. CNCCc1ccccn1
2. C=Cc1c2[nH]c(c1C)C=c1[nH]c(c(C)c1C=C)=CC1N=C(C=c3[nH]c(c(C)c3CCC(=O)O)=C2)C(CCC(=O)O)=C1C (centres undefined)
3. CC1CC2C3CCC4=CC(=O)C=C[C@]4(C)[C@@]3(F)[C@@H](O)C[C@]2(C)[C@@]1(O)C(=O)CO (some centres undefined)
4. OCC(O)C(O)C(O)CO (centres undefined)
5. CC(C(=O)O)c1cccc(C(=O)c2ccccc2)c1 (centres undefined)
6. CC(C)CC(NC(=O)C(Cc1ccccc1)NC(=O)CNC(=O)CNC(=O)C(N)Cc1ccc(O)cc1)C(=O)O (centres undefined)
7. CCN(CC)CCNC(=O)c1cc(Br)c(N)cc1OC
8. N=c1ccn2c(n1)O[C@@H]1C2O[C@H](CO)[C@H]1O (some centres undefined)

Response:
1. 1.01 (inactive)
2. 0.987 (inactive)
3. 0.984 (inactive)
4. 1.05 (inactive)
5. 1.02 (inactive)
6. 0.976 (inactive)
7. 0.979 (inactive)
8. 0.987 (inactive)

Hello, I would appreciate it if you could give normalized growth for each entry below.
1. CN1CCCN=C1COC(=O)C(O)(c1ccccc1)C1CCCCC1 (centres undefined)
2. CC1=C(C(C)O)C2=NC1C=c1[nH]c(c(C)c1C(C)O)=Cc1[nH]c(c(CCC(=O)O)c1C)C=c1[nH]c(c(C)c1CCC(=O)O)=C2 (centres undefined)

Response:
1: 0.968 (inactive); 2: 1.01 (inactive)
